test system: Nucleic Acid; assay: Binding affinity to Tel22 G-quadruplex DNA at 4:1 compound to DNA ratio by UV-spectrometer; format: nucleic-acid assay
measured attribute: ΔTm (°C)

a = CC1(C)C(/C=C/C=C/C=C2/N(CCC[N+](C)(C)C)c3ccc(Br)cc3C2(C)C)=[N+](CCC[N+](C)(C)C)c2ccc(Br)cc21
b = CC1(C)C(/C=C/C=C/C=C2/N(CCC[N+](C)(C)C)c3ccccc3C2(C)C)=[N+](CCC[N+](C)(C)C)c2ccccc21
c = CC1(C)C(/C=C/C=C/C=C2/N(CCC[N+](C)(C)C)c3ccc(Cl)cc3C2(C)C)=[N+](CCC[N+](C)(C)C)c2ccc(Cl)cc21
Problem: # rank_down: sort by ΔTm, max first Thanks in advance for listing the labels in the requested order.
Result: a, c, b
